Where do these numbers come from? They come from patent US20250179078A1.

biological target: NLRP3 (Homo sapiens, UniProt Q96P20); assay: IL-1β Secretion Assay (NLRP3-dependent IL1β secretion in THP1 cells); details: PMA-differentiated THP-1 cells; compounds incubated 20 h; 2.5 μM Nigericin 3 h; HTRF IL-1β readout; read-out: IC50 IL-1β Inhibition
Sequence (Q96P20 whole entry): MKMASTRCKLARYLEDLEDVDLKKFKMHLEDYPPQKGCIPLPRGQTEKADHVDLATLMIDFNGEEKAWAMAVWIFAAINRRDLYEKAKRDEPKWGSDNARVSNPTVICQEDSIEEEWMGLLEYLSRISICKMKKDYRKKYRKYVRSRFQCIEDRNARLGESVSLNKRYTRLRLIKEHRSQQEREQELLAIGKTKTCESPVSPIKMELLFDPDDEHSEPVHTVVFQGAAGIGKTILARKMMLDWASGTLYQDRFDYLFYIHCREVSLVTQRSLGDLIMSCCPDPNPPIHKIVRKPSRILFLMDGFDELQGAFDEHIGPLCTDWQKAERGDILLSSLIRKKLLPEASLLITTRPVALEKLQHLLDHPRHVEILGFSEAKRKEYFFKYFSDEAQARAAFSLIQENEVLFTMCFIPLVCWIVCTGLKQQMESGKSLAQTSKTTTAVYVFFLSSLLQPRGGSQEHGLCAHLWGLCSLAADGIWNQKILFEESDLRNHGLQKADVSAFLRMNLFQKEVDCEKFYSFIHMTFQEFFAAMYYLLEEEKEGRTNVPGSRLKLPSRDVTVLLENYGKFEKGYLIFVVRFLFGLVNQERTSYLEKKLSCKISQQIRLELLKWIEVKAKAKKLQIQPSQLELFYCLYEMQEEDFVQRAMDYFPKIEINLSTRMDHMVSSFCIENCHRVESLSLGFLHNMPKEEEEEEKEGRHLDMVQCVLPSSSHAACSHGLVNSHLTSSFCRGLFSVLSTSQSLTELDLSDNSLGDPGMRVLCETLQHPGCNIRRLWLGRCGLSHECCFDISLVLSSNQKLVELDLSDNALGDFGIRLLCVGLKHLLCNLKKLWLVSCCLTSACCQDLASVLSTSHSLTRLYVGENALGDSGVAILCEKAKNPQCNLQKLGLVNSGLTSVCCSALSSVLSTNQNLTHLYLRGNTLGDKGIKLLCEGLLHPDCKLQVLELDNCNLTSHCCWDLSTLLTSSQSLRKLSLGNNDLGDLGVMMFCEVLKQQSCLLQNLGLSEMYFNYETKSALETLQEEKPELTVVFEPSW
Test Readout: IC50

Entry O[C@@H]1CCCC[C@H]1Nc1nnc(-c2ccc(Cl)cc2OC(F)(F)F)c2cncn12 [Compound 300] , NLRP3 (Homo sapiens, UniProt Q96P20) data, IC50 value: 1 to 10 nM

Entry O=C1NCCC1Nc1nnc(-c2ccc(C(F)(F)F)cc2CC(F)(F)F)c2cccn12 (stereo not shown) [Compound 77] , NLRP3 (Homo sapiens, UniProt Q96P20) data, IC50 value: 1 to 10 nM

Entry CCN1CCC[C@@H](Nc2nnc(-c3ccc(OC)cc3C(F)(F)F)c3cc(C)nn23)C1 [Compound 373] , NLRP3 (Homo sapiens, UniProt Q96P20) data, IC50 value: < 1 nM

Entry COc1ccc(-c2nnc(N[C@@H]3CCCN(C)C3)n3cncc23)c(C(F)(F)C(F)(F)F)c1 [Compound 281] , NLRP3 (Homo sapiens, UniProt Q96P20) data, IC50 value: 1 to 10 nM
